- System: Aorta
- Experiment: Vasorelaxant activity in Sprague-Dawley rat aortic artery assessed as reduction in phenylephrine-induced contractions
- Assay type: functional, tissue-based
Structures can show the parent of a compound that is named as a salt.
Quantity kind: pEC50
Entry type: numeric. Quantity: pEC50, the -log10 of concentration in molar units.

Check out these entries, answers already filled in.
Compound | Assayed system | pEC50
CC[C@]12C=CCN3CCc4c(n(c5ccccc45)[C@](O)(C(=O)OC)C1)[C@@H]32 | Aorta | 5.42
Cc1ccc(N(CC2=NCCN2)c2cccc(O)c2)cc1 [PHENTOLAMINE MESYLATE] | Aorta | 7.00

Continue with the compound presented below.
stdin: // query pEC50 value for entry CC[C@]12C=CCN3CCc4c(n(c5cc(OC)ccc45)[C@@](O)(C(=O)OC)C1)[C@@H]32
stdout: 5.66

----------
# maps each entry to its pEC50
- Test system: Aorta
- Experiment: Vasorelaxant activity in Sprague-Dawley rat aortic artery assessed as reduction in phenylephrine-induced contractions
- Type: functional, tissue-based
pEC50: −log10 of the molar value.

stdin: // query pEC50 value for entry CC[C@]12C=CCN3CC[C@]4(C(=C(C(=O)OC)C1)Nc1ccccc14)[C@@H]32 [TABERSONINE]
stdout: < 5.00

stdin: // query pEC50 value for entry CC[C@]12CCCN3CC[C@]4(C(=C(C(=O)OC)C1)Nc1cc(O)ccc14)[C@@H]32
stdout: < 5.00

stdin: // query pEC50 value for entry C[C@@H]1C(=O)O[C@]23N4CC=C[C@]12C[C@@H]1C(=O)Nc2ccccc2[C@@]13CC4
stdout: < 5.00

stdin: // query pEC50 value for entry CC[C@]12C=CC(=O)N3CC[C@]4(C(=C(C(=O)OC)C1)Nc1ccccc14)[C@@H]32
stdout: 6.10

----------
- Test system: Aorta
- Experiment: Vasorelaxant activity in Sprague-Dawley rat aortic artery assessed as reduction in phenylephrine-induced contractions
- Assay type: functional, tissue-based
# maps each entry to its EC50
// units = µM; emit number, no label

Chemical structure | EC50 [µM]
CC[C@]12C=CCN3CCc4c(n(c5cc(OC)ccc45)[C@](O)(C(=O)OC)C1)[C@@H]32 | 1.9

Continue with the molecule presented below.
stdin: Given the entry CC[C@]12C=CCN3CCc4c(n(c5ccccc45)[C@@](O)(C(=O)OC)C1)[C@@H]32 , what EC50 was observed with Aorta?
stdout: 1.9

----------
# maps each entry to its EC50
- System: Aorta
- Experiment: Vasorelaxant activity in Sprague-Dawley rat aortic artery assessed as reduction in phenylephrine-induced contractions
- Format: functional, tissue-based

Check out these entries, answers already filled in.
Compound | EC50
COC(=O)[C@@H]1C[C@@]23CCC[N+]4([O-])CC[C@@]5(c6ccccc6N[C@]15CC2)[C@H]34 (stereo partly drawn) | > 10 µM
CC[C@]12CCC[N+]3([O-])CC[C@]4(C(=C(C(=O)OC)C1)Nc1cc(O)ccc14)[C@H]23 (stereo partly drawn) | > 10 µM

Continue with the compound presented below.
stdin: // query EC50 value for entry COC(=O)[C@@H](C)[C@]12C=CCN3CC[C@@]4(c5ccccc5NC(=O)[C@H]4C1)[C@@H]32
stdout: > 10 µM

Values compiled from ChEMBL document CHEMBL4665703.
